# TESTED_SYSTEM: huCD28 (human, UniProt P10747 19-152, limits assumed)
# EXPERIMENTAL_DETAILS: SPR, OAA format
So I've got a bunch of binders here, and I need their kon values.
One number for each entry, in M⁻¹ s⁻¹.

v37841 (antibody, V domains shown, OAA format as v34891; also called huTN228 S1029A (VH) OAA) VH: QVQLQESGPGLVKPSETLSLTCAVSGFALTSYGVHWIRQPPGKGLEWLGVIWPGGGTNFNSALMSRLTISEDTSKNQVSLKLSSVTAADTAVYYCARDRAYGNYLYAMDYWGQGTLVTVSS VL: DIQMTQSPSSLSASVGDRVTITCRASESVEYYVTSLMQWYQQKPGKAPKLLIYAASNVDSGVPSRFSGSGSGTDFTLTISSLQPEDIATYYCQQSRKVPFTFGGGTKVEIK = 51100

# ---- query binder ----
Just so you know, measured kon for v37883 (antibody, V domains shown, OAA format as v34891; also called huTN228 N1111AQ (VH) OAA) VH: QVQLQESGPGLVKPSETLSLTCAVSGFSLTSYGVHWIRQPPGKGLEWLGVIWPGGGTNFNSALMSRLTISEDTSKNQVSLKLSSVTAADTAVYYCARDRAYGQYLYAMDYWGQGTLVTVSS VL: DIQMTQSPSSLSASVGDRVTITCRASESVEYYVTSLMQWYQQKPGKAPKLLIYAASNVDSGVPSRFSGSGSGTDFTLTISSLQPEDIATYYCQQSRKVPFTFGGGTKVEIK came out at 86800
